The reported measurements were obtained from ChEMBL document CHEMBL1201862.

# MEASURED ON: Troponin, cardiac muscle (Homo sapiens, UniProt P19429+P45379+P63316)
# ASSAY: Fluorescence-based biochemical high throughput dose response assay for activators of the calcium sensitivity of cardiac Regulated Thin Filaments (RTF). [Related pubchem assays (depositor defined):AID493008, AID493018, AID504382, AID504383]
# Assay type: protein-complex assay
Activity calls are given as the source filed them.
A correct response names exactly one class from t for active, f for inactive

Field: example entries. Status: answers known.
CCN1C(=O)C(=CNc2ccc(N3CCOCC3)cc2)C(=O)N(CC)C1=S = t
O=C(CO/N=C/c1ccccc1OC(F)F)NCc1cccs1 = f
COc1ccc(C(=O)Nc2cc(C(C)=O)c(/C=C/N(C)C)oc2=O)cc1 = f

Continue with the next compound.
Prompt: Would you mind telling me which call this test gave O=C(/C=C/c1cn(CC(O)CN2CCCCC2)c2ccccc12)c1cccs1 (centres undefined) ?
Completion: f

====

# MEASURED ON: UniProt P00734
# ASSAY: Thrombin 1536 HTS Dose Response Confirmation. [Related pubchem assays: 1046 (Thrombin 1536 HTS; hits were confirmed in this assay)]
# Assay type: functional
The source made the active and inactive calls.
PARAMETER MEASURED: IC50

C=CCNC(=O)/C(C#N)=C\c1cc(Cl)c(O)c(OCC)c1 = > 50 µM (not active)

Please look at the following compound next.
Prompt: Need IC50 of `O=C(c1ccco1)n1nc(-c2cccnc2)nc1NCc1ccco1` , thanks.
Completion: 0.134 µM (active)

====

# MEASURED ON: Paired box protein Pax-8 (Homo sapiens, UniProt Q06710)
# Sequence (Q06710 whole entry): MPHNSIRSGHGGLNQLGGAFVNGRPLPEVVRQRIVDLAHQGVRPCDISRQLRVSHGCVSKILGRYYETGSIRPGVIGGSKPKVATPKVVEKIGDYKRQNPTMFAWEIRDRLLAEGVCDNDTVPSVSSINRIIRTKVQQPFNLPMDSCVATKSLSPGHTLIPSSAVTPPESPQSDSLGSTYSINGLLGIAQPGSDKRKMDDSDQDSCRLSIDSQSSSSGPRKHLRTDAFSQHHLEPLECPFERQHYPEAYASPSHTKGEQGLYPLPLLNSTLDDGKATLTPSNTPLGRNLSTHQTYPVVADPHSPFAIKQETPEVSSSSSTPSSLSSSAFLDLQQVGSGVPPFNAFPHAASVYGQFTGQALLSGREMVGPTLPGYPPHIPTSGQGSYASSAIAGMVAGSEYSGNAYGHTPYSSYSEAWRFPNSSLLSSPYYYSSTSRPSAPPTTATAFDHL
# ASSAY: inhibitors of PAX8-driven TPO luciferase reporter, dose response, RMG-I cells, cherry-pick (AID 687027);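 note: luciferase reporter driven by Pax8 target thyroperoxidase promoter measured by SteadyGlo luminescence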
# Type: functional, cell-based
Activity calls are given as the source filed them.
PARAMETER MEASURED: AC50

C[C@@H]1CCCCO[C@@H](CN(C)Cc2ccc(C(F)(F)F)cc2)[C@H](C)CN([C@@H](C)CO)C(=O)c2cc(NS(=O)(=O)c3ccc(F)cc3)ccc2O1 = 5.83 µM (active)
COc1cccc(/C=C2/Sc3ccc(C(=O)NCCN4CCCCCC4)cc3NC2=O)c1 = 10.1 µM (active)
CCCC(=O)NC(c1ccc(C(C)C)cc1)c1ccc2cccnc2c1O (stereo not given) = 1.21 µM (active)
C=CC(=O)N1C/C(=C/c2ccc(Cl)cc2)C(=O)/C(=C\c2ccc(Cl)cc2)C1 = 1.82 µM (active)
C[C@@H]1CCCCO[C@H](CN(C)Cc2ccc(Cl)c(Cl)c2)[C@@H](C)CN([C@@H](C)CO)C(=O)c2cc(NC(=O)Nc3ccc(C(F)(F)F)cc3)ccc2O1 = 4.2 µM (active)

Prompt: What value of AC50 has been recorded for this entry: `O=C(Cn1ncc(Cl)c(Cl)c1=O)NC(=O)NC1CCCCC1`
Completion: 2.85 µM (active)

Prompt: What would you report for COc1ccc(C(c2nnnn2Cc2ccccc2)N2CCC(n3c(O)nc4ccccc43)CC2)cc1 (stereo not given) ?
Completion: 6.91 µM (active)

====

# ASSAY: inhibitors of firefly luciferase expression or activity, dose response, H4 neuroglioma cells, luminescence (AID 1990)
# Assay type: functional, cell-based
The source made the active and inactive calls.
PARAMETER MEASURED: EC50

Answered examples (4):
COc1ccc(OC)c(Nc2cc(C)nc3ccc(C)cc23)c1 = > 120 µM (not active)
CCCc1cc(=O)n2ncc(-c3ccc(Cl)cc3)c2[nH]1 = 11.6 µM (active)
Cc1cccc(CS(=O)(=O)c2ncc(Cl)c(C(=O)NCc3ccccc3)n2)c1 = > 120 µM (not active)
Cc1cc(C)cc(C(=O)N2CC(=O)Nc3ccccc32)c1 = 1.09 µM (active)

Prompt: Query: EC50; subject: `CCOC(=O)c1[nH]cnc1N=Nc1c(O)ccc2ccccc12`
Completion: 7.69 µM (active)
